Could you please report measured MOR agonist activity, percent [35S]GTPγS binding at the stated compound concentration for the items listed next?
- Test system: mu opiate receptor (MOR)
- assay.remarks: MOR agonist activity using [35S]GTPγS binding assay in striatal membranes
- Format: biochemical
- measurement.parameters: Series C-2; 1 μM compound + 1 μM β-FNA
- Method: To assess the mu opiate receptor (MOR) agonist activity of positive compounds from the FLNA screening, compounds were tested in a [^35S]GTPγS binding assay using striatal membranes. […] The immunocomplexes so formed were collected by incubation at 25° C. for 30 minutes with 40 μl of agarose-conjugated protein A/G beads and centrifugation at 5,000×g at 4° C. for 5 minutes. […] The radioactivity in the suspension was determined by liquid scintillation spectrometry.
The answer is to be given in %; state only the numeric part.

Dear colleague, I am looking for the recorded MOR agonist activity, percent [35S]GTPγS binding at the stated compound concentration of the following molecule: O=S(=O)(c1ccccc1Oc1ccccc1)N1CCC2(CC1)NCCO2 [Compound C0149M-2]
93.4

Dear colleague, I am looking for the recorded MOR agonist activity, percent [35S]GTPγS binding at the stated compound concentration of the following molecule: "CC(=O)c1ccc(S(=O)(=O)N2CCC3(CC2)NCCS3)cc1"
143.9

Dear colleague, I am looking for the recorded MOR agonist activity, percent [35S]GTPγS binding at the stated compound concentration of the following molecule: CC(=O)c1ccc(S(=O)(=O)N2CCC3(CC2)NC(=O)CO3)cc1 [Compound C0087M]
142.5

Dear colleague, I am looking for the recorded MOR agonist activity, percent [35S]GTPγS binding at the stated compound concentration of the following molecule: CC(=O)c1ccc(S(=O)(=O)N2CC(CN(C)C)OC23CCNCC3)cc1 (centres unmarked) [Compound C0118M]
79.2

Dear colleague, I am looking for the recorded MOR agonist activity, percent [35S]GTPγS binding at the stated compound concentration of the following molecule: CN1CCC2(CC1)NC(=O)CN2Cc1ccccc1 [Compound C0104M]
143.8

Dear colleague, I am looking for the recorded MOR agonist activity, percent [35S]GTPγS binding at the stated compound concentration of the following molecule: COc1ccc(S(=O)(=O)N2CCOC23CCN(CC2CC2)CC3)cc1 [Compound C0090M]
41.0

Dear colleague, I am looking for the recorded MOR agonist activity, percent [35S]GTPγS binding at the stated compound concentration of the following molecule: CC(=O)c1ccc(S(=O)(=O)N2CCOC23CCN(C)CC3)cc1 [Compound C0093M]
44.0

Dear colleague, I am looking for the recorded MOR agonist activity, percent [35S]GTPγS binding at the stated compound concentration of the following molecule: "CC(=O)c1ccc(S(=O)(=O)N2CCC3(CC2)OCCN3S(=O)(=O)c2ccc(C(C)=O)cc2)cc1"
19.0

====

- experimental.system: FLNA pentapeptide of SEQ ID NO: 1 (Bn-VAKGL) (Homo sapiens, UniProt P21333)
- assay.remarks: FITC-NLX-based FLNA screening assay (inhibition of FITC-naloxone binding to Bn-VAKGL on streptavidin plates)
- measurement.parameters: FLNA-binding compound 0.1 μM; 10 nM FITC-NLX; read-out: Percent Binding Inhibition
property.name: inhibition at 0.1 µM (%)
The answer is to be given in %; state only the numeric part.

Dear colleague, I am looking for the recorded inhibition at 0.1 µM of the following molecule: CC1CN(CC(O)COc2cc(F)cc(F)c2)CC(C)O1 (stereo not shown) [Compound A0046]
38.4

Dear colleague, I am looking for the recorded inhibition at 0.1 µM of the following molecule: COc1ccc(S(=O)(=O)N2CCOC23CCN(C(C)C)CC3)cc1 [Compound C0133M]
54.9

Dear colleague, I am looking for the recorded inhibition at 0.1 µM of the following molecule: COc1ccc(C(=O)N2CCC3(CC2)OCCN3C(=O)c2ccc(OC)cc2)cc1 [Compound C0017]
35.4

Dear colleague, I am looking for the recorded inhibition at 0.1 µM of the following molecule: CC(=O)c1ccc(S(=O)(=O)N2CCC3(CC2)OCC(CCCCN(C)C)N3S(=O)(=O)c2ccc(C(C)=O)cc2)cc1 (stereo not shown) [Compound C0080]
53.3

Dear colleague, I am looking for the recorded inhibition at 0.1 µM of the following molecule: COc1ccccc1CC(O)CC1c2c(cc3c(c2OC)OCO3)CCN1C (stereo not shown) [Compound B0030]
50.5

Dear colleague, I am looking for the recorded inhibition at 0.1 µM of the following molecule: CC(=O)c1ccc(C(=O)N2CCC3(CC2)OCCN3C(=O)c2ccc(C(C)=O)cc2)cc1 [Compound C0054]
39.4

Dear colleague, I am looking for the recorded inhibition at 0.1 µM of the following molecule: NS(=O)(=O)c1ccc(S(=O)(=O)N2CCC3(CC2)NCCO3)cc1 [Compound C0034-3]
38.3

Dear colleague, I am looking for the recorded inhibition at 0.1 µM of the following molecule: CC1CCC(C(C)C)C(OCC(O)CN2CCN(CCN3CCCCC3)CC2)C1 (stereo not shown) [Compound A0031]
47.6

Dear colleague, I am looking for the recorded inhibition at 0.1 µM of the following molecule: COc1ccc(CCC(O)CC2c3c(cc4c(c3OC)OCO4)CCN2C)cc1 (stereo not shown) [Compound B0048]
41.9

Dear colleague, I am looking for the recorded inhibition at 0.1 µM of the following molecule: O=[N+]([O-])c1ccc(S(=O)(=O)N2CCC3(CC2)NCCO3)cc1 [Compound C0040]
46.3

Dear colleague, I am looking for the recorded inhibition at 0.1 µM of the following molecule: O=S(=O)(c1ccc(F)c(F)c1)N1CCC2(CC1)OCCN2S(=O)(=O)c1ccc(F)c(F)c1 [Compound C0072]
37.4

Dear colleague, I am looking for the recorded inhibition at 0.1 µM of the following molecule: COc1ccc(S(=O)(=O)N2CCC3(OCCN3S(=O)(=O)c3ccc(OC)cc3)C3CCCCC32)cc1 (stereo not shown) [Compound C0144M]
50.7

Dear colleague, I am looking for the recorded inhibition at 0.1 µM of the following molecule: CC1CCC(C(C)C)C(OCC(O)CN2CCN(CCCN3CCOCC3)CC2)C1 (stereo not shown) [Compound A0026]
42.4

Dear colleague, I am looking for the recorded inhibition at 0.1 µM of the following molecule: CC1CN(CC(O)COc2ccccc2C(C)C)CC(C)O1 (stereo not shown) [Compound A0029]
44.4

Dear colleague, I am looking for the recorded inhibition at 0.1 µM of the following molecule: O=C(OCc1ccccc1)c1ccc(S(=O)(=O)N2CCC3(CC2)OCCN3S(=O)(=O)c2ccc(C(=O)OCc3ccccc3)cc2)cc1 [Compound C0042]
49.7

Dear colleague, I am looking for the recorded inhibition at 0.1 µM of the following molecule: CC(=O)Nc1ccc(S(=O)(=O)N2CCC3(CC2)OCCN3S(=O)(=O)c2ccc(NC(C)=O)cc2)cc1 [Compound C0013]
42.4

====

- Test system: mu opiate receptor (MOR)
- assay.remarks: MOR agonist activity using [35S]GTPγS binding assay in striatal membranes
- Format: biochemical
- measurement.parameters: Series B; 1 μM compound + 1 μM β-FNA
property.name: MOR agonist activity, percent [35S]GTPγS binding at the stated compound concentration (%)
The answer is to be given in %; state only the numeric part.

Form: Entry = COc1cccc(OC)c1CC(=O)CC1c2c(cc3c(c2OC)OCO3)CC[N+]1(C)C (stereo not shown) [Compound B0036] | System = mu opiate receptor (MOR) | MOR agonist activity, percent [35S]GTPγS binding at the stated compound concentration = ____
65.1

Form: Entry = COc1ccc(CCC(=O)CC2c3c(cc4c(c3OC)OCO4)CCN2C)cc1 (stereo not shown) [Compound B0047] | System = mu opiate receptor (MOR) | MOR agonist activity, percent [35S]GTPγS binding at the stated compound concentration = ____
68.4

Form: Entry = COc1c2c(cc3c1C(CC(=O)CCc1ccc(Cl)cc1)[N+](C)(C)CC3)OCO2 (stereo not shown) [Compound B0017] | System = mu opiate receptor (MOR) | MOR agonist activity, percent [35S]GTPγS binding at the stated compound concentration = ____
49.6

Form: Entry = COc1cccc(CC(=O)CC2c3c(cc4c(c3OC)OCO4)CC[N+]2(C)C)c1OC (stereo not shown) [Compound B0038] | System = mu opiate receptor (MOR) | MOR agonist activity, percent [35S]GTPγS binding at the stated compound concentration = ____
117.1

Form: Entry = COc1cc(C(=O)CC2c3c(cc4c(c3OC)OCO4)CC[N+]2(C)C)cc(OC)c1OC (stereo not shown) [Compound B0037] | System = mu opiate receptor (MOR) | MOR agonist activity, percent [35S]GTPγS binding at the stated compound concentration = ____
106.2

Form: Entry = COc1ccc(CCC(=O)CC2c3c(cc4c(c3OC)OCO4)CC[N+]2(C)C)c(OC)c1 (stereo not shown) [Compound B0043] | System = mu opiate receptor (MOR) | MOR agonist activity, percent [35S]GTPγS binding at the stated compound concentration = ____
166.4

Form: Entry = COc1ccccc1CC(O)CC1c2c(cc3c(c2OC)OCO3)CCN1C (stereo not shown) [Compound B0030] | System = mu opiate receptor (MOR) | MOR agonist activity, percent [35S]GTPγS binding at the stated compound concentration = ____
90.1

Form: Entry = COc1cccc(OC)c1C(=O)CC1c2c(cc3c(c2OC)OCO3)CC[N+]1(C)C (stereo not shown) [Compound B0023] | System = mu opiate receptor (MOR) | MOR agonist activity, percent [35S]GTPγS binding at the stated compound concentration = ____
28.4

Form: Entry = COc1ccc(OC)c(CCC(=O)CC2c3c(cc4c(c3OC)OCO4)CC[N+]2(C)C)c1 (stereo not shown) [Compound B0044] | System = mu opiate receptor (MOR) | MOR agonist activity, percent [35S]GTPγS binding at the stated compound concentration = ____
134.6

Form: Entry = COc1c2c(cc3c1C(CC(=O)CCc1ccc(O)cc1)[N+](C)(C)CC3)OCO2 (stereo not shown) [Compound B0028] | System = mu opiate receptor (MOR) | MOR agonist activity, percent [35S]GTPγS binding at the stated compound concentration = ____
55.0

Measured values drawn from patent US10363239B2 for this set.
